- Test system: T1, human LAG3 (construct not stated) (human, UniProt P18627 23-450, limits assumed)
- T1 construct: also called human LAG3 protein; antigen
- T1 sequence (looked up): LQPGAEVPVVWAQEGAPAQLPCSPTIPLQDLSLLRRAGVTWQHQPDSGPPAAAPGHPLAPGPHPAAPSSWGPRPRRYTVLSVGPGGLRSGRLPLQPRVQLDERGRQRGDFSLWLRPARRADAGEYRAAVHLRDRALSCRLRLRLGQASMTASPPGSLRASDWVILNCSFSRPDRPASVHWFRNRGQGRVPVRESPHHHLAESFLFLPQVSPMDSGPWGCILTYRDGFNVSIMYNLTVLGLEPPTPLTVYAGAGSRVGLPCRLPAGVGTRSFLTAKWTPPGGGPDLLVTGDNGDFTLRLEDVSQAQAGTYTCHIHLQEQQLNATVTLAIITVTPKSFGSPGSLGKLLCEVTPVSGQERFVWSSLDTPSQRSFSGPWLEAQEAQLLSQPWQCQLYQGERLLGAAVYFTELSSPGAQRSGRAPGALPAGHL
- Protocol summary: BLI Octet Red 96, affinity ranking
Consider the following binders; for each one, report its kon.
Write the value in M⁻¹ s⁻¹ as a bare number.

GET /value?item= 147H-14 (antibody, V domains shown, Common light chain; human gamma 1 / kappa constant domains) VH: EVQLVQSGAEVKKPGASVKVSCKASGYTFTNYWLGWIKQAPGQGLEWIGDIYPGGDYINYNEKFKGKATLTADTSISTAYMELSRLRSDDTAVYFCARPNLPGDYWGQGTTVTVSS VL: DIVMTQSPLSLPVTPGEPASISCRSSKSLLHSNGITYLYWYLQKPGQSPQLLIYQVSNLASGVPDRFSGSGSGTDFTLKISRVEAEDVGVYYCAQNLELPWTFGGGTKVEIK &field=kon returns 108000

GET /value?item= 147H-1 (antibody, V domains shown) VH: QVQLVQSGAEVKKPGASVKVSCKASGYTFTNYWLGWVRQAPGQGLEWMGDIYPGGDYINYNEKFKGRVTMTRDTSISTAYMELSRLRSDDTAVYYCARPNLPGDYWGQGTTVTVSS VL: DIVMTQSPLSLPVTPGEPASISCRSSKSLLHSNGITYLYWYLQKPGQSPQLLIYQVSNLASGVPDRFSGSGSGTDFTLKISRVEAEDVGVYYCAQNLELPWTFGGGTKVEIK &field=kon returns 109000

GET /value?item= 147H-2 (antibody, V domains shown, Common light chain; human gamma 1 / kappa constant domains) VH: QVQLVQSGAEVKKPGASVKVSCKASGYTFTNYWLGWVRQAPGQGLEWMGDIYPGGDYINYNEKFKGRVTMTADTSISTAYMELSRLRSDDTAVYYCARPNLPGDYWGQGTTVTVSS VL: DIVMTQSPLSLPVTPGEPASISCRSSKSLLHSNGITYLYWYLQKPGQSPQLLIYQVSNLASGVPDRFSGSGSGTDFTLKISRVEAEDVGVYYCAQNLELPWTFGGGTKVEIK &field=kon returns 99300

Data provenance is patent US20220363763A1.
